- Test system: NCI-H460 lung
- assay_comment: NCI-60 one-dose screen, 48 h
- condition_set: 10 µM unless noted
About 83,000 compounds went through this panel and 20% of them were active in at least one assay; those are over-represented in the sample as a whole. Calls of active or inactive are those of the source. How the source made its calls: active means growth percent below 10; inactive means the rest.
Your response should consist of one outcome taken from true = active, false = inactive

Known results for compounds:
>>> classification("COc1cc(N2C(=O)[C@H](c3ccccc3)C2c2ccc(SC)cc2)cc(OC)c1OC (stereo not given in full)")
"true"
>>> classification("CC1CN=C(c2cccc(-c3ccc(-c4ccccc4)o3)c2)N1 (stereo not given)")
"true"
>>> classification("CN(C)c1ccc(/C=C2/C=C(c3ccccc3)OC2=O)cc1")
"false"

Asked: Recorded call for COc1cc(C(=O)c2c(N)ncn2-c2ccccc2)cc(OC)c1OC ?
Given back: false

Asked: Which outcome did this test record for the compound Cn1cc(-c2csc(-c3cn(C)c4ccc(Br)cc34)n2)c2cnccc21 ?
Given back: true

Asked: Status in this test for CC1(C)CC[C@]2(C(=O)O)CC[C@]3(C)C(=CC[C@@H]4[C@@]5(C)C[C@@H](Cc6cn([C@@H]7O[C@H](CO)[C@@H](O)[C@H](O)[C@H]7O)nn6)[C@H](O)C(C)(C)[C@@H]5CC[C@]43C)[C@@H]2C1 ?
Given back: false

* * *

- System: A549/ATCC NSCLC
- assay_comment: NCI-60 one-dose screen, 48 h (100 = growth as untreated, 0 = no growth, -100 = all killed)
- condition_set: 10 µM unless noted
Compounds without any hit were thinned out: in the full panel of roughly 83,000, 20% have a hit.
Entries annotated with measured growth
Express your answer in %, writing the number without its unit.

>>> reported_result("CCCNc1nc2ccccc2c2c(=O)c3cccc(Cl)c3sc12")
94
>>> reported_result("CCOC(=O)Cn1c(=O)c2c3ccccc3n(C)c2n2nnc(-c3ccccc3)c12")
159
>>> reported_result("Cc1ccccc1CNc1c2ccccc2nc2ccccc12")
19.7

Asked: Give reported growth value for COc1cc(C#Cc2ccc(=O)oc2C#Cc2ccccc2)cc(OC)c1OC
Given back: 95.7

Asked: Could you please provide reported growth for COc1cc2c3c(n(CCCCNCCCn4c5c(c6cc(OC)c(OC)cc6c4=O)C(=O)c4cc6c(cc4-5)OCO6)c(=O)c2cc1OC)-c1cc2c(cc1C3=O)OCO2 ? Thanks!
Given back: 90.3

Asked: Answer with the recorded growth of CCOC(=O)c1c(C)nc2ccccc2c1/C=C/c1ccc(OC)cc1 only.
Given back: 57.6

Asked: // fetch growth given entry C=CCn1c(SCC(=O)Nc2ccc(C(=O)/C=C/c3ccc(OC)cc3)cc2)nnc1-c1ccccc1
Given back: 83

* * *

- Tested on: NCI-H226 lung
- assay_comment: NCI-60 one-dose screen, 48 h (100 = growth as untreated, 0 = no growth, -100 = all killed)
- condition_set: 10 µM unless noted
- Description: Growth inhibition of the NCI-H226 human Non-Small Cell Lung tumor cell line is measured as a screen for anti-cancer activity. Cells are grown in 96 well plates and exposed to the test compound for 48 hours. Compounds are tested at a single concentration, which is 10^-5 M for most compounds. The reported endpoint is percent growth (GI% or GIPRCNT), where numbers from 0 - 100% represent growth inhibition, and numbers from -100% - 0 represent cell death. […]
The panel holds about 83,000 compounds, 20% with a hit somewhere; the sample as a whole holds those more often.
Lab note: compare growth against 70%. Equal or greater, write yes (1). Smaller, write no (0).

>>> classification("Cc1ccc(C)n1/C=C/n1c(C)ccc1C")
"yes (1)"
>>> classification("CCNCc1ccc(O)c2ncccc12")
"no (0)"
>>> classification("CCOC(=O)C1CCN(c2ccc(N3C[C@@H](CNCc4ccc(C(=N)N)cc4)OC3=O)cc2)CC1")
"yes (1)"
>>> classification("CCN(CC)c1ccc(N2C(=O)/C(=C/c3cccs3)SC2=S)cc1")
"yes (1)"
>>> classification("O=C(Nc1nc(C(=O)N2CCN(C(c3ccccc3)c3ccccc3)CC2)cs1)c1ccc(NC2CCCCC2)c([N+](=O)[O-])c1")
"no (0)"
>>> classification("CCCCCCCCCCCCCCCCOC(=O)c1c(C)[nH]c(/C=C2\\N=C(c3ccc[nH]3)C=C2OC)c1C")
"no (0)"
>>> classification("COc1ccc(Nc2ncc(C(N)=O)c(NCCCNC(=O)C3CCC3)n2)cc1")
"no (0)"
>>> classification("Cn1ccnc1C(=O)/C=C/c1ccc(C(=O)Nc2ccc(F)cc2)cc1")
"no (0)"
>>> classification("C=CCN=C(N)SCCCCCCSC(N)=NCC=C")
"yes (1)"
>>> classification("COc1ccc2cc(-c3cnc4nonc4n3)ccc2c1")
"no (0)"

Asked: # check: growth of CCOC(=O)c1c(-c2ccc(Cl)cc2)c(C#N)c2c(C#N)c(N)nn2c1N is greater than or equal to 70%
Given back: yes (1)

Asked: Threshold query (growth >= 70%) on C=C(c1ccc(C(=O)O)cn1)c1cc2c(cc1C)C(C)(C)CCC2(C)C
Given back: yes (1)

Asked: Reported growth at or above 70%? COc1cc(/C=C2\C(=O)N(c3c(Cl)cccc3Cl)c3ccccc32)cc(OC)c1OCCCCCCn1c2ccccc2c(=O)c2ccccc21
Given back: yes (1)
